FYI, the data here is from patent US20250197375A1.

- TARGET SYSTEM: UniProt Q9Y2I7
- ASSAY DETAILS: PIKfyve EEA1 Assay (endosomal vesicle enlargement, high content imaging in U2OS cells)
- Assay type: cell-based
- CONDITION CONTEXT: 3 hours of treatment, activity relative to maximal APY0201 activity
MEASUREMENT TYPE: IC50

[
  {
    "CHEMICAL STRUCTURE": "COc1c(Nc2cccnc2)nc(N2CCOCC2)nc1-c1cccc(N2CCC(O)CC2)c1",
    "MEASUREMENT TYPE": "IC50",
    "REPORTED": "1 to 10 µM"
  },
  {
    "CHEMICAL STRUCTURE": "COc1ccc(-c2nc(N3CCOCC3)nc(Nc3cccnc3)c2OC)cc1OC",
    "MEASUREMENT TYPE": "IC50",
    "REPORTED": "1 to 10 µM"
  },
  {
    "CHEMICAL STRUCTURE": "COc1c(Nc2cccnc2)nc(N2CCOCC2)nc1-c1cccc(-c2cccnn2)c1",
    "MEASUREMENT TYPE": "IC50",
    "REPORTED": "1 to 10 µM"
  },
  {
    "CHEMICAL STRUCTURE": "COc1c(Nc2cccnc2)nc(N2CCOCC2)nc1-c1cncc(-c2ccn(C)n2)c1",
    "MEASUREMENT TYPE": "IC50",
    "REPORTED": "0.1 to 1 µM"
  },
  {
    "CHEMICAL STRUCTURE": "COc1c(Nc2ccncc2)nc(OC[C@H]2COCCN2)nc1-c1cccc(-c2ccn(C)n2)c1",
    "MEASUREMENT TYPE": "IC50",
    "REPORTED": "1 to 10 µM"
  },
  {
    "CHEMICAL STRUCTURE": "COc1c(Nc2cccnc2)nc(N2CCOCC2)nc1-c1cccc(-c2ccn(C)n2)c1",
    "MEASUREMENT TYPE": "IC50",
    "REPORTED": "0.1 to 1 µM"
  },
  {
    "CHEMICAL STRUCTURE": "COc1c(C(=O)Nc2ccccc2)nc(N2CCOCC2)nc1-c1ccn(-c2ccccc2)n1",
    "MEASUREMENT TYPE": "IC50",
    "REPORTED": "1 to 10 µM"
  },
  {
    "CHEMICAL STRUCTURE": "COc1c(Nc2ccncc2)nc(N2CCOCC2)nc1-c1cccc(-n2cccn2)c1",
    "MEASUREMENT TYPE": "IC50",
    "REPORTED": "0.1 to 1 µM"
  },
  {
    "CHEMICAL STRUCTURE": "COc1c(NCc2cccnc2)nc(-c2ccncc2)nc1-c1cccc(-c2ccn(C)n2)c1",
    "MEASUREMENT TYPE": "IC50",
    "REPORTED": "0.1 to 1 µM"
  },
  {
    "CHEMICAL STRUCTURE": "COc1c(Nc2ccncc2)nc(N2CCOCC2)nc1-c1ccnc(-c2ccn(C)n2)n1",
    "MEASUREMENT TYPE": "IC50",
    "REPORTED": "0.1 to 1 µM"
  },
  {
    "CHEMICAL STRUCTURE": "COc1c(Nc2cccnc2)nc(-c2ccncc2)nc1-c1cccc(-c2ccn(C)n2)c1",
    "MEASUREMENT TYPE": "IC50",
    "REPORTED": "0.01 to 0.1 µM"
  },
  {
    "CHEMICAL STRUCTURE": "COc1c(NCc2cccnc2)nc(-c2cccc(-c3ccn(C)n3)c2)nc1-c1ccncc1",
    "MEASUREMENT TYPE": "IC50",
    "REPORTED": "1 to 10 µM"
  },
  {
    "CHEMICAL STRUCTURE": "COc1cc(-c2nc(N3CCOCC3)nc(Nc3ccncc3)c2OC)cnc1OC",
    "MEASUREMENT TYPE": "IC50",
    "REPORTED": "0.1 to 1 µM"
  },
  {
    "CHEMICAL STRUCTURE": "COc1c(OCCc2ccccn2)nc(-c2cccc(-c3ccn(C)n3)c2)nc1N1CCOCC1",
    "MEASUREMENT TYPE": "IC50",
    "REPORTED": "1 to 10 µM"
  },
  {
    "CHEMICAL STRUCTURE": "O=c1[nH]c2ccc(-n3cccn3)cc2c2nc(N3CCOCC3)nc(Nc3ccncc3)c12",
    "MEASUREMENT TYPE": "IC50",
    "REPORTED": "1 to 10 µM"
  },
  {
    "CHEMICAL STRUCTURE": "Cn1ccc(-c2cccc(-c3nc(N4CCOCC4)nc(Nc4cccnc4)c3P(C)(C)=O)c2)n1",
    "MEASUREMENT TYPE": "IC50",
    "REPORTED": "1 to 10 µM"
  },
  {
    "CHEMICAL STRUCTURE": "COc1c(Nc2ccncc2)nc(-c2ccncc2)nc1-c1ccnc(-c2ccn(C)n2)c1",
    "MEASUREMENT TYPE": "IC50",
    "REPORTED": "0.01 to 0.1 µM"
  }
]

---

Measured IC50 accompanies every entry in the list below.
- TARGET SYSTEM: full-length human PIKFYVE (Homo sapiens (Human), UniProt Q9Y2I7, L932S/Q1183K/Q995L/S1033A/S696N/T998S)
- Sequence (Q9Y2I7 whole entry S696N/L932S/Q995L/T998S/S1033A/Q1183K): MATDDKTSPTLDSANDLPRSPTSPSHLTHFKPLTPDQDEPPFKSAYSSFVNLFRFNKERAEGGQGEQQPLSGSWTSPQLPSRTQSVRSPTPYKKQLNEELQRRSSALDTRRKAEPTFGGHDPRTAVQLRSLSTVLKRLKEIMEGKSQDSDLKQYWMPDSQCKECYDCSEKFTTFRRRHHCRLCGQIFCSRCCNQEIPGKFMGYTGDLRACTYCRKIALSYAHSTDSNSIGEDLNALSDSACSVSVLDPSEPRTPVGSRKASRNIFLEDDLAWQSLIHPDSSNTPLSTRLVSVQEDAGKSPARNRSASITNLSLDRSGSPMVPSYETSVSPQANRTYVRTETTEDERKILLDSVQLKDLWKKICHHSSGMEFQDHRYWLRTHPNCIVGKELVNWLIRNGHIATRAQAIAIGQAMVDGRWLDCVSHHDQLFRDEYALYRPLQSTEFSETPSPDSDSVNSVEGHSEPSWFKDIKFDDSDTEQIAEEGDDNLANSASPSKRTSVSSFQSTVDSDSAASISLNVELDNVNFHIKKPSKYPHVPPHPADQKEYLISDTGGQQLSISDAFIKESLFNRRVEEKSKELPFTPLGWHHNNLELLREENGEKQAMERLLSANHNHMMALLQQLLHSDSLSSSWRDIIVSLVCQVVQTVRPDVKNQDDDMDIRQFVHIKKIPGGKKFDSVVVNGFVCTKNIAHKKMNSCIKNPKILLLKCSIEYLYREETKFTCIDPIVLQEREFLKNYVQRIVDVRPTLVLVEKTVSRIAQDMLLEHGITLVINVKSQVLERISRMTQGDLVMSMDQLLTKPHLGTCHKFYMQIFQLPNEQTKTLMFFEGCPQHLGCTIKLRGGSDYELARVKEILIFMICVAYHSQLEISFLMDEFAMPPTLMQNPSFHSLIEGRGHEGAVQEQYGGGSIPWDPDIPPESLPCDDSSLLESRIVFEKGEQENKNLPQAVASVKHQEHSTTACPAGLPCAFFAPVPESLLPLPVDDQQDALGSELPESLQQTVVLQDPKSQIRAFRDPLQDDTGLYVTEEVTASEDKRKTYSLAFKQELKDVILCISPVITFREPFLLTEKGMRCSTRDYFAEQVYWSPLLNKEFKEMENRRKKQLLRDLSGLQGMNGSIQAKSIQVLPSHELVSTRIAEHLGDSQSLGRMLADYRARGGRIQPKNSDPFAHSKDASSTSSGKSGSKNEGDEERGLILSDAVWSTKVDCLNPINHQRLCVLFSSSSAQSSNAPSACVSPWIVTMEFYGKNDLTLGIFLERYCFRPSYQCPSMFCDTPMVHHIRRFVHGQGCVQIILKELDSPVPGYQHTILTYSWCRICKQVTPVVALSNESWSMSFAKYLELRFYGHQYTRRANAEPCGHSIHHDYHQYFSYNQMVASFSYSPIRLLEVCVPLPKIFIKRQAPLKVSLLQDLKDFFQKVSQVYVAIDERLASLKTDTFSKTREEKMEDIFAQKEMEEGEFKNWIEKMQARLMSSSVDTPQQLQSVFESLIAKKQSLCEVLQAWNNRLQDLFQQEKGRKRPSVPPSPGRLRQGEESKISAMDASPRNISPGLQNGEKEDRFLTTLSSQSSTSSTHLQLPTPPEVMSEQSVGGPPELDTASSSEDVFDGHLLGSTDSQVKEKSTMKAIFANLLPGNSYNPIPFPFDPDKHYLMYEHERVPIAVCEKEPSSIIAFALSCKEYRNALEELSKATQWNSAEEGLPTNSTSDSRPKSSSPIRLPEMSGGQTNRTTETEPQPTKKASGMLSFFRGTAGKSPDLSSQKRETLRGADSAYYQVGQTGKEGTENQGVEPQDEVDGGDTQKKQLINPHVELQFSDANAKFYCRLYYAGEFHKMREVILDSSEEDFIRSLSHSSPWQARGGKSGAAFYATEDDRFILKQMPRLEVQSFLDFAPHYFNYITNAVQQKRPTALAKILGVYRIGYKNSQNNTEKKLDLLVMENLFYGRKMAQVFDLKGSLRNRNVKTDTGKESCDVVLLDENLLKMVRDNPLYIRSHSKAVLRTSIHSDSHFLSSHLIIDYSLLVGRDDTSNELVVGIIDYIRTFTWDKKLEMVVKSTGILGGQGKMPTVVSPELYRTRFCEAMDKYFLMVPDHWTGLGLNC
- ASSAY DETAILS: PIKfyve Biochemical Assay (ADP-Glo Kinase assay, GST-PIKFYVE)
- CONDITION CONTEXT: ADP-Glo, 1 hour at room temperature, 10 μM to 3 nM in duplicate; read-out: PIKfyve Biochemistry IC50 (μM)*
MEASUREMENT TYPE: IC50

[
  {
    "COMPOUND": "COc1c(Nc2ccncc2)nc(N2CCC(O)CC2)nc1-c1cccc(-c2ccn(C)n2)c1 [Compound 46]",
    "REPORTED": "0.1 to 1 µM"
  },
  {
    "COMPOUND": "Cn1ccc(-c2cccc(-c3nc(N4CCOCC4)nc(Nc4ccncc4)c3-c3ncco3)c2)n1 [Compound 74]",
    "REPORTED": "0.01 to 0.1 µM"
  },
  {
    "COMPOUND": "COc1c(Nc2ccncc2)nc(N2CCOCC2)nc1-c1cccc(C(=O)N(C)C)c1 [Compound 11]",
    "REPORTED": "0.01 to 0.1 µM"
  },
  {
    "COMPOUND": "COc1c(Nc2ccncc2)nc(N2CCOCC2)nc1-c1cccc(N2CCN(C)C(=O)C2)c1 [Compound 15]",
    "REPORTED": "0.01 to 0.1 µM"
  },
  {
    "COMPOUND": "COc1c(Oc2cccnc2)nc(N2CCOCC2)nc1-n1cc(-c2ccccc2)cn1 [Compound 2]",
    "REPORTED": "0.01 to 0.1 µM"
  },
  {
    "COMPOUND": "COc1c(C(=O)Nc2ccccc2)nc(N2CCOCC2)nc1-c1ccn(-c2ccccc2)n1 [Compound 1]",
    "REPORTED": "0.01 to 0.1 µM"
  },
  {
    "COMPOUND": "COc1c(Nc2ccc(C)cc2)nc(N2CCOCC2)nc1-c1cc(-c2ccn(C)n2)cnn1 [Compound 17]",
    "REPORTED": "< 0.01 µM"
  },
  {
    "COMPOUND": "COc1c(Nc2ccncc2)nc(N2CCOCC2)nc1-c1cccc(-c2ncccn2)c1 [Compound 16]",
    "REPORTED": "< 0.01 µM"
  }
]

---

- TARGET SYSTEM: full-length human PIKFYVE (Homo sapiens (Human), UniProt Q9Y2I7, L932S/Q1183K/Q995L/S1033A/S696N/T998S)
- ASSAY DETAILS: PIKfyve Biochemical Assay (ADP-Glo Kinase assay, GST-PIKFYVE)
- CONDITION CONTEXT: ADP-Glo with full-length PIKfyve; read-out: PIKfyve IC50
pIC50: −log10 of the molar value.

[
  {
    "CHEMICAL STRUCTURE": "N#Cc1cc(N2CCOCC2)n2nc(-c3ccncc3)cc2n1",
    "pIC50": "< 5.00"
  }
]

---

- System: PIKFYVE TDP-43 yeast strain
- ASSAY DETAILS: Propidium iodide viability assay in PIKFYVE TDP-43 yeast strain
- Assay type: cell-based
- CONDITION CONTEXT: PIKFYVE TDP-43 yeast model

[
  {
    "COMPOUND": "Cc1cccc(/C=N/Nc2cc(N3CC4CC3CO4)n3nc(-c4ccncc4)cc3n2)c1 (stereo not drawn)",
    "TARGET SYSTEM": "PIKFYVE TDP-43 yeast strain",
    "PIKfyve TDP-43 (active/inactive)": "Active"
  },
  {
    "COMPOUND": "Cc1cccc(/C=N/Nc2nc(N3CCOCC3)c3nc(-c4ccncc4)n(C)c3n2)c1 [drawing 192]",
    "TARGET SYSTEM": "PIKFYVE TDP-43 yeast strain",
    "PIKfyve TDP-43 (active/inactive)": "Active"
  },
  {
    "COMPOUND": "N#Cc1cc(N2CCOCC2)n2nc(-c3ccncc3)cc2n1",
    "TARGET SYSTEM": "PIKFYVE TDP-43 yeast strain",
    "PIKfyve TDP-43 (active/inactive)": "Inactive"
  },
  {
    "COMPOUND": "Cc1cccc(/C=N/Nc2cc(N3CCOCC3)n3nc(-c4ccncc4)cc3n2)c1 [drawing 190]",
    "TARGET SYSTEM": "PIKFYVE TDP-43 yeast strain",
    "PIKfyve TDP-43 (active/inactive)": "Active"
  },
  {
    "COMPOUND": "Cn1c(-c2ccncc2)nc2c(N3CCOCC3)ncnc21",
    "TARGET SYSTEM": "PIKFYVE TDP-43 yeast strain",
    "PIKfyve TDP-43 (active/inactive)": "Inactive"
  },
  {
    "COMPOUND": "CN(C)c1cc(N2CCOCC2)n2nc(-c3ccncc3)cc2n1",
    "TARGET SYSTEM": "PIKFYVE TDP-43 yeast strain",
    "PIKfyve TDP-43 (active/inactive)": "Inactive"
  }
]
